- System: Caco-2 cells
- testSummary: Permeability from Caco-2 cells (transport assay)
- Format: in vitro ADME
- measurementSetup: Caco-2; calculated from pro-drug only, does not include converted drug; in % (unit assumed)
Catalogue of compounds with associated Mass Balance
measurementType: Mass Balance

compoundsmiles=CC(C)c1cc(Oc2c(Cl)cc(-n3nc(C#N)c(=O)[nH]c3=O)cc2Cl)nn(COC(=O)CCC(=O)O)c1=O measurementtype="Mass Balance" readoutnumber=84.4
compoundsmiles=CC(C)C(=O)OCn1nc(Oc2c(Cl)cc(-n3nc(C#N)c(=O)[nH]c3=O)cc2Cl)cc(C(C)C)c1=O measurementtype="Mass Balance" readoutnumber=47.9
compoundsmiles=CC(C)c1cc(Oc2c(Cl)cc(-n3nc(C#N)c(=O)[nH]c3=O)cc2Cl)nn(COC(=O)CN2CCOCC2)c1=O measurementtype="Mass Balance" readoutnumber=95.0
compoundsmiles=CC(=O)OCn1nc(Oc2c(Cl)cc(-n3nc(C#N)c(=O)[nH]c3=O)cc2Cl)cc(C(C)C)c1=O measurementtype="Mass Balance" readoutnumber=71.0
compoundsmiles=CC(C)c1cc(Oc2c(Cl)cc(-n3nc(C#N)c(=O)[nH]c3=O)cc2Cl)nn(COC(=O)N2CCOCC2)c1=O measurementtype="Mass Balance" readoutnumber=101.5
compoundsmiles=CC(C)c1cc(Oc2c(Cl)cc(-n3nc(C#N)c(=O)[nH]c3=O)cc2Cl)nn(COC(=O)c2cnccn2)c1=O measurementtype="Mass Balance" readoutnumber=92.8
